# Test system: 786-0 renal
# assay.overview: NCI-60 one-dose screen, 48 h
# test.parameters: 10 µM unless noted
Compounds without any hit were thinned out: in the full panel of roughly 83,000, 20% have a hit. The source made the active and inactive calls. The calls were made as follows: active = growth percent below 10; inactive = the rest.
Field 'call' accepts Yes for active, No for inactive

A selection of reference data follows.
{"compound": "CCCNCC(=O)Nc1ccc(C(=O)OC(C)(C)CC)cc1", "assay.system": "786-0 renal", "assigned.label": "No"}
{"compound": "Cc1c(C(=O)O[C@H]2[C@@H]3[C@H](C)CC[C@H]3[C@]3(C)O[C@@]2(C2CCCCC2)C[C@H]3OC(=O)CO)ccc2ccccc12", "assay.system": "786-0 renal", "assigned.label": "Yes"}
{"compound": "COc1ccc(/C(C)=C(\\c2ccc(Cl)cc2)c2ccc(OCCN3CCCCCC3)cc2)cc1F", "assay.system": "786-0 renal", "assigned.label": "Yes"}

Exercise: Test call for this compound, please: "N[C@H]1CCC[C@@H]1NCCCCN1C(=O)c2cccc3cccc(c23)C1=O"
Solution: No

Exercise: Test call for this compound, please: "CNC=O"
Solution: No

Exercise: Test call for this compound, please: "C(=C\c1nc2ccccc2[nH]1)/c1nc2ccccc2[nH]1"
Solution: No

Exercise: Test call for this compound, please: "Cc1cc(N2CCCCC2)nc(N(CCNc2ccnc3cc(Cl)ccc23)Cc2ccccn2)n1"
Solution: No

Exercise: Test call for this compound, please: "Clc1ccc(-c2cn(-c3ccccc3)c(-c3ccccc3)n2)cc1"
Solution: No
